Origin of the recorded values: ChEMBL document CHEMBL3351317

- assay-notes: Volume of distribution at steady state in C57BL6 mouse at 3 mg/kg, iv or 5 mg/kg, po
- Assay type: ADME, organism-based
- condition-parameters: in vivo, read-out: Vdss
measured-attribute: Vd (L/kg)
Just the number in L/kg, nothing appended.

Problem: What Vd value was documented for this compound, `C[C@@H]1CN(c2nc(C(F)(F)F)no2)CCN1c1ncc(OCc2ccc(CS(C)(=O)=O)cc2F)cn1` ?
Result: 5.1

---

- assay-notes: Oral bioavailability in Han Wistar rat at 5 mg/kg
- Assay type: ADME, organism-based
- condition-parameters: in vivo
measured-attribute: bioavailability (%)
Just the number in %, nothing appended.

Problem: What bioavailability value was documented for this compound, `C[C@@H]1CN(c2nc(C(F)(F)F)no2)CCN1c1ncc(OCc2ccc(CS(C)(=O)=O)cc2F)cn1` ?
Result: 85

---

- assay-notes: Cmax in Han Wistar rat at […], po
- Assay type: ADME, organism-based
- Set-up: dose 7.1 mg/kg, route oral
- condition-parameters: in vivo
measured-attribute: Cmax (nM)
Just the number in nM, nothing appended.

Problem: What Cmax value was documented for this molecule, `C[C@@H]1CN(c2nc(C(F)(F)F)no2)CCN1c1ncc(OCc2ccc(CS(C)(=O)=O)cc2F)cn1` ?
Result: 1100

---

- assay-notes: AUC (0 to 24 hrs) in C57BL6 mouse at […], po
- Format: ADME, organism-based
- Set-up: time < 24 hr, dose 5.7 mg/kg, route oral
- condition-parameters: plasma
measured-attribute: AUC(0-t) at 24 h (µM·h)
Just the number in µM·h, nothing appended.

Problem: What AUC(0-t) at 24 h value was documented for this molecule, `C[C@@H]1CN(c2nc(C(F)(F)F)no2)CCN1c1ncc(OCc2ccc(CS(C)(=O)=O)cc2F)cn1` ?
Result: 26

---

- assay-notes: AUC (0 to 24 hrs) in Han Wistar rat at […], po
- Format: ADME, organism-based
- Set-up: time < 24 hr, dose 7.1 mg/kg, route oral
- condition-parameters: plasma
measured-attribute: AUC(0-t) at 24 h (µM·h)
Just the number in µM·h, nothing appended.

Problem: What AUC(0-t) at 24 h value was documented for this compound, `C[C@@H]1CN(c2nc(C(F)(F)F)no2)CCN1c1ncc(OCc2ccc(CS(C)(=O)=O)cc2F)cn1` ?
Result: 11

---

- assay-notes: Cmax in Han Wistar rat at 154 mg/kg, po
- Type: ADME, organism-based
- Set-up: dose 154 mg/kg, route oral
- condition-parameters: in vivo
measured-attribute: Cmax
The reply should consist of the numeric value with the unit placed after it.

Problem: What Cmax value was documented for this molecule, `C[C@@H]1CN(c2nc(C(F)(F)F)no2)CCN1c1ncc(OCc2ccc(CS(C)(=O)=O)cc2F)cn1` ?
Result: 13.7 µM

---

- assay-notes: Cmax in Han Wistar rat at 19 mg/kg, po
- Format: ADME, organism-based
- Parameters: dose 19 mg/kg, route oral
- condition-parameters: in vivo
measured-attribute: Cmax (µM)
Just the number in µM, nothing appended.

Problem: What Cmax value was documented for this compound, `C[C@@H]1CN(c2nc(C(F)(F)F)no2)CCN1c1ncc(OCc2ccc(CS(C)(=O)=O)cc2F)cn1` ?
Result: 7.5
